All figures here come from patent US7205311B2.

# run description: Growth inhibition, sulforhodamine B (SRB) assay
# Assay type: cell-based
# recorded conditions: human, A431 cervix carcinoma cells, A431, 96 hr incubation, salts, read-out: Cytotoxicity - IC50 A431
This section presents compounds with their documented IC50 at 96 h values.
value type: IC50 at 96 h (nM)

test smiles: CN(C)CCNc1ccc2cc3ccc(NCCN(C)C)cc3nc2c1
value type: IC50 at 96 h
recorded result: 200

test smiles: CCN(CC)CCNc1ccc2cc3ccc(NCCN(CC)CC)cc3nc2c1
value type: IC50 at 96 h
recorded result: 200

test smiles: CC(C)N(CCNc1ccc2cc3ccc(NCCN(C(C)C)C(C)C)cc3nc2c1)C(C)C
value type: IC50 at 96 h
recorded result: 1000

test smiles: CN(C)CCCNc1ccc2cc3ccc(NCCCN(C)C)cc3nc2c1
value type: IC50 at 96 h
recorded result: 700

###

# run description: Growth inhibition, sulforhodamine B (SRB) assay
# Type: cell-based
# recorded conditions: human, A2780 ovarian carcinoma cells, A2780, 96 hr incubation, salts, read-out: Cytotoxicity - IC50 A2780
IC50 at 96 h by entry:
value type: IC50 at 96 h (nM)

molecule: CCN(CC)CCNc1ccc2cc3ccc(NCCN(CC)CC)cc3nc2c1 [SB-ACI-05]
value type: IC50 at 96 h
recorded result: 100

molecule: CC(C)N(CCNc1ccc2cc3ccc(NCCN(C(C)C)C(C)C)cc3nc2c1)C(C)C [SB-ACI-06]
value type: IC50 at 96 h
recorded result: 400

molecule: CN(C)CCCNc1ccc2cc3ccc(NCCCN(C)C)cc3nc2c1 [SB-ACI-04]
value type: IC50 at 96 h
recorded result: 1800

molecule: CN(C)CCNc1ccc2cc3ccc(NCCN(C)C)cc3nc2c1 [SB-ACI-10]
value type: IC50 at 96 h
recorded result: 200

###

IC50 at 96 h values for the compounds below.
# run description: Growth inhibition, sulforhodamine B (SRB) assay
# Assay type: cell-based
# recorded conditions: human, SKOV-3 ovarian carcinoma cells, SKOV-3, 96 hr incubation, salts, read-out: Cytotoxicity - IC50 SKOV-3

test smiles: CC(C)N(CCNc1ccc2cc3ccc(NCCN(C(C)C)C(C)C)cc3nc2c1)C(C)C
IC50 at 96 h (µM): 1.3
//
test smiles: CN(C)CCNc1ccc2cc3ccc(NCCN(C)C)cc3nc2c1
IC50 at 96 h (µM): 0.2
//
test smiles: CN(C)CCCNc1ccc2cc3ccc(NCCCN(C)C)cc3nc2c1
IC50 at 96 h (µM): 3.9
//
test smiles: CCN(CC)CCNc1ccc2cc3ccc(NCCN(CC)CC)cc3nc2c1
IC50 at 96 h (µM): 0.7

###

Listing: IC50 at 96 h of selected compounds
# run description: Growth inhibition, SRB assay, mean over the four cell lines
# Format: cell-based
# recorded conditions: human, mean of A2780, CH1, SKOV-3, A431, 96 hr incubation, salts, read-out: Cytotoxicity - IC50, mean value for the four (4) cell lines

test smiles: CCN(CC)CCCNc1ccc2cc3ccc(NCCCN(CC)CC)cc3nc2c1
IC50 at 96 h (nM): 1800
//
test smiles: c1cc2cc3ccc(NCCCN4CCCCC4)cc3nc2cc1NCCCN1CCCCC1
IC50 at 96 h (nM): 500
//
test smiles: c1ccc(NCCCNc2ccc3cc4ccc(NCCCNc5ccccc5)cc4nc3c2)cc1
IC50 at 96 h (nM): 1700
//
test smiles: c1cc2cc3ccc(NCCCN4CCCC4)cc3nc2cc1NCCCN1CCCC1
IC50 at 96 h (nM): 1600
//
test smiles: CCN(CC)CCCCNc1ccc2cc3ccc(NCCCCN(CC)CC)cc3nc2c1
IC50 at 96 h (nM): 6300
//
test smiles: c1cc2cc3ccc(NCCCCN4CCCC4)cc3nc2cc1NCCCCN1CCCC1
IC50 at 96 h (nM): 2500

###

# run description: Growth inhibition, sulforhodamine B (SRB) assay
# Format: cell-based
# recorded conditions: human, CH1 ovarian carcinoma cells, CH1, 96 hr incubation, salts, read-out: Cytotoxicity - IC50 CH1
Listing: IC50 at 96 h of selected compounds
value type: IC50 at 96 h (nM)

test smiles: CN(C)CCNc1ccc2cc3ccc(NCCN(C)C)cc3nc2c1
recorded result: 100
//
test smiles: CC(C)N(CCNc1ccc2cc3ccc(NCCN(C(C)C)C(C)C)cc3nc2c1)C(C)C
recorded result: 600
//
test smiles: CN(C)CCCNc1ccc2cc3ccc(NCCCN(C)C)cc3nc2c1
recorded result: 2000
//
test smiles: CCN(CC)CCNc1ccc2cc3ccc(NCCN(CC)CC)cc3nc2c1
recorded result: 200
